- METHOD_SUMMARY: molar heat capacity at constant pressure
- CONDITION_LABEL: 343.15 K; 101.33 kPa; Liquid; Small sample (50 mg) DSC

COMPOUND	molar heat capacity at constant pressure, J/K/mol
CCCCCCCCn1cc[n+](C)c1.NCC(=O)[O-] [1-methyl-3-octylimidazolium glycinate]	546.99
CCCCCCCCn1cc[n+](C)c1.O=C([O-])[C@@H]1CCCN1 [1-methyl-3-octyl-1H-imidazol-3-ium L-prolinate]	615.85
CCCCCCCC[n+]1ccn(C)c1.NC(=O)C[C@H](N)C(=O)[O-] [1-methyl-3-octylimidazolium L-asparaginate]	705.81
CCCCCCCC[n+]1ccn(C)c1.N[C@@H](CO)C(=O)[O-] [1-methyl-3-octyl-1H-imidazol-3-ium L-serinate]	644.72
CCCCCCCC[n+]1ccn(C)c1.C[C@H](N)C(=O)[O-] [1-methyl-3-octylimidazolium L-alaninate]	645.14

* * *

- CONDITION_LABEL: 323.15 K; Liquid; Pendant drop shape
Could you label it Criterion met if measured surface tension liquid-gas is 30 mN/m or higher, and Criterion not met otherwise?

COMPOUND	ASSIGNED_CLASS
CCCCCCCC[n+]1ccn(C)c1.NC(=O)C[C@H](N)C(=O)[O-] [1-methyl-3-octylimidazolium L-asparaginate]	Criterion met
CCCCCCCCn1cc[n+](C)c1.O=C([O-])[C@@H]1CCCN1 [1-methyl-3-octyl-1H-imidazol-3-ium L-prolinate]	Criterion not met
CCCCCCCC[n+]1ccn(C)c1.N[C@@H](CO)C(=O)[O-] [1-methyl-3-octyl-1H-imidazol-3-ium L-serinate]	Criterion met
CCCCCCCC[n+]1ccn(C)c1.C[C@H](N)C(=O)[O-] [1-methyl-3-octylimidazolium L-alaninate]	Criterion not met
CCCCCCCCn1cc[n+](C)c1.NCC(=O)[O-] [1-methyl-3-octylimidazolium glycinate]	Criterion met

* * *

- CONDITION_LABEL: 293.15 K; 101.33 kPa; Liquid
// viscosity lookup, one value per entry

MOLECULE	viscosity / mPa·s
CCCCCCCC[n+]1ccn(C)c1.N[C@@H](CO)C(=O)[O-] [1-methyl-3-octyl-1H-imidazol-3-ium L-serinate]	2853
CCCCCCCCn1cc[n+](C)c1.NCC(=O)[O-] [1-methyl-3-octylimidazolium glycinate]	486.4
CCCCCCCC[n+]1ccn(C)c1.C[C@H](N)C(=O)[O-] [1-methyl-3-octylimidazolium L-alaninate]	705.1
CCCCCCCCn1cc[n+](C)c1.O=C([O-])[C@@H]1CCCN1 [1-methyl-3-octyl-1H-imidazol-3-ium L-prolinate]	1969.8

* * *

- CONDITION_LABEL: 333.15 K; 101.33 kPa; Liquid
Please assign class 0 whenever viscosity is at or above 100 mPa·s, and class 1 whenever it is below.

MOLECULE	ASSIGNED_CLASS
CCCCCCCC[n+]1ccn(C)c1.N[C@@H](CO)C(=O)[O-] [1-methyl-3-octyl-1H-imidazol-3-ium L-serinate]	class 0
CCCCCCCCn1cc[n+](C)c1.O=C([O-])[C@@H]1CCCN1 [1-methyl-3-octyl-1H-imidazol-3-ium L-prolinate]	class 0
CCCCCCCC[n+]1ccn(C)c1.NC(=O)C[C@H](N)C(=O)[O-] [1-methyl-3-octylimidazolium L-asparaginate]	class 0
CCCCCCCCn1cc[n+](C)c1.NCC(=O)[O-] [1-methyl-3-octylimidazolium glycinate]	class 1
CCCCCCCC[n+]1ccn(C)c1.C[C@H](N)C(=O)[O-] [1-methyl-3-octylimidazolium L-alaninate]	class 1
